I'd appreciate it if you could supply pIC50 values for the items below.
assayedTarget: Stearoyl-CoA Desaturase (SCD) (Mus musculus)
Construct: from tissue; host or cells: liver microsomes of male ICR mice on a high-carbohydrate, low fat diet
Sequence (P13516 whole entry): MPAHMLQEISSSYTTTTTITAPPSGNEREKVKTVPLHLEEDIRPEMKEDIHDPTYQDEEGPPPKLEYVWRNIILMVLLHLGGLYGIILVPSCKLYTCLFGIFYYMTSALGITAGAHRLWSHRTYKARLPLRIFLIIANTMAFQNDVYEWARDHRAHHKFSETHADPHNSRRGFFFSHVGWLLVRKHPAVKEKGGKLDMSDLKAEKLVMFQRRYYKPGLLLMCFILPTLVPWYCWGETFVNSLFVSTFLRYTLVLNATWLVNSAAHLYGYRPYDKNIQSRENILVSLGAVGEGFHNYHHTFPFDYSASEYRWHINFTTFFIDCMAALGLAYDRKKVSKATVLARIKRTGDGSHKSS
protocol: Stearoyl-CoA desaturase inhibition using mouse liver microsomes
Format: biochemical
measurementParameters: microsomal assay; read-out: Microsome IC50
By convention, pIC50 is the negative base-10 log of a molar concentration.

pIC50 in this record for CCCS(=O)(=O)Nc1ccc(N2CCN(C(=O)c3ccccc3C(F)(F)F)CC2)nn1 : 5.20

What the record says about O=C(c1ccccc1C(F)(F)F)N1CCN(c2ccc([S+]([O-])CCc3ccccc3)nn2)CC1 (stereo not drawn) : pIC50 is 7.17

O=C(c1ccccc1C(F)(F)F)N1CCN(c2ccc(SCCc3ccccc3)nn2)CC1 has a reported pIC50 of 7.22

Data point: CC(C)CCSc1ccc(N2CCN(C(=O)c3ccccc3C(F)(F)F)CC2)nn1 ; pIC50 = 6.35

// pIC50 value for O=C(c1ccccc1C(F)(F)F)N1CCN(c2ccc(OCCc3ccccc3)nn2)CC1 : 5.34

Value of pIC50 reported for the molecule O=C(c1ccccc1C(F)(F)F)N1CCN(c2ccc(S(=O)(=O)CCc3ccccc3)nn2)CC1 is 7.17
